Listing of entries alongside the reported IC50.
# Study Target: Cysteinyl leukotriene receptor 1 (Homo sapiens)
# Sequence (Q9Y271 whole entry): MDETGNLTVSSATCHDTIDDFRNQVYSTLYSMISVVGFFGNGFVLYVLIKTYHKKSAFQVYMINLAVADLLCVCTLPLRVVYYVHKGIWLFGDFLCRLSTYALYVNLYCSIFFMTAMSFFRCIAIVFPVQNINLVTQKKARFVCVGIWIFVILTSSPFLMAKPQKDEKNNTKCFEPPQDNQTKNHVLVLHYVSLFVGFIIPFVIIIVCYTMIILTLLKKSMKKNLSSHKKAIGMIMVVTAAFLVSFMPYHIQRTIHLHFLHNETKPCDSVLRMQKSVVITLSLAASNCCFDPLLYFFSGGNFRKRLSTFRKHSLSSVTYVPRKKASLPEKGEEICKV
# Procedure Summary: Antagonist activity at human CysLT1 receptor expressed in CHO cells assessed as inhibition of LTD4-inudced intracellular calcium influx preincubated for 30 mins before LTD4 addition by Fura2-AM assay
Report the figure in µM without appending any unit label.

Consider the worked cases shown below.
O=C(O)CCCCC(=O)N1CC(C(=O)O)Oc2c(NC(=O)c3ccc(OCCCCc4ccccc4)cc3)cccc21 (stereo unspecified) = 0.012
O=C(O)CCCN1CC(C(=O)O)Oc2c(NC(=O)c3ccc(OCCCOc4ccccc4)cc3)cccc21 (stereo unspecified) = 0.29
CC(=O)N1CC(C(=O)O)Oc2c(NC(=O)c3ccc(OCCCCc4ccccc4)cc3)cccc21 (stereo unspecified) = 0.013

Q) For the molecule O=C(Nc1ccc2c(c1)NCC(C(=O)O)O2)c1ccc(OCCCCc2ccccc2)cc1 (stereo unspecified) , what IC50 is on record?
A) 0.84

---

Listing of entries alongside the reported pIC50.
# Study Target: Cysteinyl leukotriene receptor 2 (Homo sapiens, UniProt Q9NS75)
# Sequence (Q9NS75 whole entry): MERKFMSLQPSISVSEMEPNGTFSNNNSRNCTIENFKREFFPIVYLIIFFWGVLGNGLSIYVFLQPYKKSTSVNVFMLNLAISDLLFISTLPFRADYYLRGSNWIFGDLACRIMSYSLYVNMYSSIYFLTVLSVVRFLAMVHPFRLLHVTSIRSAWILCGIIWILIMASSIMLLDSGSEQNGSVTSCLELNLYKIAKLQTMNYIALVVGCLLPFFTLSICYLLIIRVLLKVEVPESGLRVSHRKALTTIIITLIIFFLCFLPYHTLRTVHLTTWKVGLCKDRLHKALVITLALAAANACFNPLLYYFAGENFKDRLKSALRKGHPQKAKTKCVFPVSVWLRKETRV
# Procedure Summary: Antagonist activity at human CysLT2 receptor expressed in HEK293 cells assessed as inhibition of LTD4-inudced intracellular calcium influx preincubated for 30 mins before LTD4 addition by Fura2-AM assay
Value format note: pIC50 is -log10 of concentration (mol/L); just state the number.

O=C(O)CCCCC(=O)N1CC(C(=O)O)Oc2c(NC(=O)c3ccc(OCCCCc4ccccc4)cc3)cccc21 (stereo not drawn) = 6.05
O=C(O)CCCCN1CC(C(=O)O)Oc2c(NC(=O)c3ccc(OCCCCc4ccccc4)cc3)cccc21 (stereo not drawn) = 6.77
O=C(O)CCCN1CC(C(=O)O)Oc2c(NC(=O)c3ccc(OCCOc4ccccc4)cc3)cccc21 (stereo not drawn) = 5.82
O=C(O)CCCN1CC(C(=O)O)Oc2c(NC(=O)c3ccc(OCCCCOc4ccccc4)cc3)cccc21 (stereo not drawn) = 7.77
O=C(Nc1cccc2c1OC(C(=O)O)CN2)c1ccc(OCCCCc2ccccc2)cc1 (stereo not drawn) = 5.34
CC(=O)N1CC(C(=O)O)Oc2c(NC(=O)c3ccc(OCCCCc4ccccc4)cc3)cccc21 (stereo not drawn) = 5.44
CCN(CC)C(=O)/C=C(\C)c1ccc2oc(C(=O)c3ccc(C#N)cc3)c(NC(=O)/C(C#N)=C(/C)O)c2c1 = 5.11
O=C(O)CCCC(=O)N1CC(C(=O)O)Oc2c(NC(=O)c3ccc(OCCCCc4ccccc4)cc3)cccc21 (stereo not drawn) = 5.74

Q) Reported pIC50 for Cysteinyl leukotriene receptor 2 (Homo sapiens, UniProt Q9NS75), given O=C(O)CCCCCN1CC(C(=O)O)Oc2c(NC(=O)c3ccc(OCCCCc4ccccc4)cc3)cccc21 (stereo not drawn) ?
A) 6.54

Q) Reported pIC50 for Cysteinyl leukotriene receptor 2 (Homo sapiens, UniProt Q9NS75), given O=C(O)CCCN1CC(C(=O)O)Oc2c(NC(=O)c3ccc(OCCCc4ccccc4)cc3)cccc21 (stereo not drawn) ?
A) 7.17

Q) Reported pIC50 for Cysteinyl leukotriene receptor 2 (Homo sapiens, UniProt Q9NS75), given O=C(O)CCC(=O)N1CC(C(=O)O)Oc2c(NC(=O)c3ccc(OCCCCc4ccccc4)cc3)cccc21 (stereo not drawn) ?
A) 6.05

Q) Reported pIC50 for Cysteinyl leukotriene receptor 2 (Homo sapiens, UniProt Q9NS75), given CCCC(=O)N1CC(C(=O)O)Oc2c(NC(=O)c3ccc(OCCCCc4ccccc4)cc3)cccc21 (stereo not drawn) ?
A) 5.43

Q) Reported pIC50 for Cysteinyl leukotriene receptor 2 (Homo sapiens, UniProt Q9NS75), given CCCCC/C=C\C\C=C/C=C/C=C/[C@@H](Sc1ccc(C(=O)O)cc1)[C@@H](O)CCCC(=O)O ?
A) 6.52
